TARGET DESC: SLBPfl (human, UniProt Q14493 1-270)
MEASUREMENT PROTOCOL: fluorescence anisotropy; 0.5 mM EDTA; Fluorescence anisotropy: 20 mM HEPES pH 7.5, 100 mM NaCl, 0.5 mM EDTA, 100 ug/ml BSA; 30 min at room temperature, read at 25 C; one-site fit with Hill slope, n=3
PROTOCOL CONDITIONS: protein: recombinant; tags: 6xHis-TEV (N-terminal); label: 5' 6-FAM; hairpin, intact 6 bp stem
pKd: −log10 of the molar value.
OBSERVATION TYPE: pKd

BINDER: CCAAAGGCUCUUUUCAGAGCCACU (structured_RNA) [6-FAM-SL24]
OBSERVATION TYPE: pKd
OBSERVED RESULT: ~8.15
